The origin of these recorded values is patent US9540370B2.

Record type: IC50 measurement. Applies to: UniProt:P49841
Sequence (P49841 whole entry): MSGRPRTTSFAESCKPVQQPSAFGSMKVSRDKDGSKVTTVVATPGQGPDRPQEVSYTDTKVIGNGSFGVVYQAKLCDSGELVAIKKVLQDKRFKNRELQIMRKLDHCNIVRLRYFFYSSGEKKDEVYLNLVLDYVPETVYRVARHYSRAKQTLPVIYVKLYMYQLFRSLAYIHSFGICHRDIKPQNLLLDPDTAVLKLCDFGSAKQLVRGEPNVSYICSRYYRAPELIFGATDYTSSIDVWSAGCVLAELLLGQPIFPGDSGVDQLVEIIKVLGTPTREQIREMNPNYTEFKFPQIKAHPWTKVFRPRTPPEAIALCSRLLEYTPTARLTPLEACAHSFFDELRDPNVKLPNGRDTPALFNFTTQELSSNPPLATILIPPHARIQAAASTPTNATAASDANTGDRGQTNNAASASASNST
assay.readout: IC50

chemical.smiles | test.result
O=C(Nc1cccc(C2=CCOCC2)n1)Nc1ccnc2c(F)cccc12 | < 100 nM
O=C(Nc1cccc(C(F)(F)F)n1)Nc1ccnc2ccc(Br)cc12 | < 100 nM
N#Cc1cccc2c(NC(=O)Nc3cccc(C(F)(F)F)n3)ccnc12 | < 100 nM
O=C(Nc1cccc(C2CCOCC2)n1)Nc1ccnc2c(F)cccc12 | < 100 nM
O=C(Nc1cccc(C2=COCCC2)n1)Nc1ccnc2c(F)cccc12 | < 100 nM
O=C(Nc1cccc(C(F)(F)F)n1)Nc1ccnc2c(I)cccc12 | < 100 nM
